Where these numbers come from: patent US20250170266A1

assayed-system: mTLR7 (Mus musculus)
Sequence (P58681 27-1050): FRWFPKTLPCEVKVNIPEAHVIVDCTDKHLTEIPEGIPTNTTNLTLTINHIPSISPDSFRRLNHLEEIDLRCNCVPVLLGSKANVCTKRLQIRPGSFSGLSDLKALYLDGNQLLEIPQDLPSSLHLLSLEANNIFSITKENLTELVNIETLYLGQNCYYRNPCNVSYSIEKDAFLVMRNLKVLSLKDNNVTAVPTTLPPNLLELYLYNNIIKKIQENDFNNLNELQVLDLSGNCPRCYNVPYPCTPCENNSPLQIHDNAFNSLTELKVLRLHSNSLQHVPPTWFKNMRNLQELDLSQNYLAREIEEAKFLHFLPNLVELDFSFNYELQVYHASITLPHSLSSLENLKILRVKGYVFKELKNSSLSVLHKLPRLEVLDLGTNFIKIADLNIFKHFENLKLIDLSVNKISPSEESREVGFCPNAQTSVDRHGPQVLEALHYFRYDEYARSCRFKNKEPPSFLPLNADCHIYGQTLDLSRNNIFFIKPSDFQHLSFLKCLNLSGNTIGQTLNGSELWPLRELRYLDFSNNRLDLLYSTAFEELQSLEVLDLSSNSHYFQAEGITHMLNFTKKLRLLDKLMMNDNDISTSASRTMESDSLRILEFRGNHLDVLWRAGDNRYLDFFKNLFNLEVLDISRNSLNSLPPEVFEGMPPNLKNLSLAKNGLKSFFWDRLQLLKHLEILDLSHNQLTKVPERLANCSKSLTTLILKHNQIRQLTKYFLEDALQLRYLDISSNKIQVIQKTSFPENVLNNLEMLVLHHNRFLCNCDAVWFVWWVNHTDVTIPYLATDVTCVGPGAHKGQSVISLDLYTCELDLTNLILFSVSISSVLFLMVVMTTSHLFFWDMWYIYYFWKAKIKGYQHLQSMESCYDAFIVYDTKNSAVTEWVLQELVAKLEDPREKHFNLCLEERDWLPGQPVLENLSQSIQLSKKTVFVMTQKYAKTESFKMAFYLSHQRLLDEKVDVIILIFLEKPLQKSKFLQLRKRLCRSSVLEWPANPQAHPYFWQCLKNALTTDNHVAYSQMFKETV
measurement-notes: Reporter Gene Assay (RGA), HEK-Blue mTLR7 reporter cells, SEAP readout
run-conditions: overnight incubation, SEAP absorbance 620 nm
result-type: EC50 (µM)

compound	assayed-system	uom	quantitative-result
CCCCOc1nc(N)c2nc(O)n(Cc3ccc(CNCCCCN)cc3OC)c2n1 [Compound 160]	mTLR7 (Mus musculus)	µM	0.01
CCCCOc1nc(N)c2nc(O)n(Cc3ccc(CN4CCNCC4)cc3)c2n1 [Compound 166]	mTLR7 (Mus musculus)	µM	0.011
CCOc1nc(N)c2nc(O)n(Cc3ccc(CNC4CCCNC4)cc3OC)c2n1 (stereo not shown) [Compound 127]	mTLR7 (Mus musculus)	µM	1.03
CCCCCNc1nc(N)c2nc(O)n(Cc3ccc(CN4CCC(N)CC4)cc3)c2n1 [Compound 188]	mTLR7 (Mus musculus)	µM	0.0262
CCOc1nc(N)c2nc(O)n(Cc3ccc(CN4CCC(C5CCNCC5)CC4)cc3OC)c2n1 [Compound 138]	mTLR7 (Mus musculus)	µM	0.243
CCOc1nc(N)c2nc(O)n(Cc3ccc(CN4CCN(C(=O)CCCCCNC(=O)CC(SC[C@@H](N)C(=O)O)C(=O)O)CC4)cc3OC)c2n1 (stereo partly shown) [Compound 148]	mTLR7 (Mus musculus)	µM	1.26
CCOc1nc(N)c2nc(O)n(Cc3ccc(CN4CCC5(CCNCC5)CC4)cc3OC)c2n1 [Compound 139]	mTLR7 (Mus musculus)	µM	0.0965
CCCCOc1nc(N)c2nc(O)n(Cc3ccc(CCN4CCC5(CCNCC5)CC4)cc3OC)c2n1 [Compound 177]	mTLR7 (Mus musculus)	µM	15.5
CCOc1nc(N)c2nc(O)n(Cc3ccc(CNCCN)cc3OC)c2n1 [Compound 111]	mTLR7 (Mus musculus)	µM	0.0869
CCOc1nc(N)c2nc(O)n(Cc3ccc(CNCCCN4CCNCC4)cc3OC)c2n1 [Compound 131]	mTLR7 (Mus musculus)	µM	0.676
CCCCOc1nc(N)c2nc(O)n(Cc3ccc(CN4CCC5(CCNCC5)CC4)cc3OC)c2n1 [Compound 157]	mTLR7 (Mus musculus)	µM	0.0037
CCCCCNc1nc(N)nc2ccn(Cc3ccc(CN4CCN(CCNC(=O)CC(SC[C@@H](N)C(=O)O)C(=O)O)CC4)cc3OC)c12 (stereo partly shown) [Benchmark, reference compound]	mTLR7 (Mus musculus)	µM	0.0954
CCOc1nc(N)c2nc(O)n(Cc3ccc(CNCc4ccc(CN(CC(=O)O)CC(=O)O)cc4)cc3OC)c2n1 [Compound 151]	mTLR7 (Mus musculus)	µM	0.125
CCCCCNc1nc(N)c2nc(O)n(Cc3ccc(CNCc4ccc(CN)cc4)cc3)c2n1 [Compound 191]	mTLR7 (Mus musculus)	µM	0.0005
CCCCCNc1nc(N)c2nc(O)n(Cc3ccc(CNCCN)cc3)c2n1 [Compound 189]	mTLR7 (Mus musculus)	µM	0.041
CCOc1nc(N)c2nc(O)n(Cc3ccc(CNCCC(=O)N[C@@H](Cc4c[nH]cn4)C(=O)O)cc3OC)c2n1 [Compound 116]	mTLR7 (Mus musculus)	µM	1.02
